- Test system: SLK;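 also: KINOMEscan kinase panel screen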
- cond: concentration: 1 μM, replicates: in singlicate; n = 1
Please respond with reported %Inh for every item in the list.
State just the number; it will be interpreted in %.

Quick check: %Inh of COc1cc(Nc2nccc(N3CCC(NC(=O)Nc4cccc(C(C)=O)c4)C3)n2)cc(OC)c1OC (centres unmarked) ?
30

Quick check: %Inh of Cc1ccc(F)c(C(=O)Nc2cccc(-c3nn4ccccc4c3-c3ccnc(Nc4cccc(F)c4)n3)c2)c1F ?
94.2

Quick check: %Inh of COC(=O)Nc1nc2cc(Oc3ccc(NC(=O)Nc4cc(C(F)(F)F)ccc4F)cn3)ccc2[nH]1.Cl.Cl ?
36

Quick check: %Inh of Cc1cccc(Nc2nc(N[C@H]3CCNC3)ncc2C(N)=O)c1.Cl ?
30

Quick check: %Inh of CN(c1ccc(NC(=O)Nc2cc(C(F)(F)F)ccc2F)cc1)c1ccnc(Nc2ccc(S(N)(=O)=O)cc2)n1 ?
96.3

Quick check: %Inh of Cc1ccc(S(=O)(=O)Nc2ccc(Nc3nccc(Nc4cccc5[nH]ncc45)n3)cc2)cc1 ?
0

Quick check: %Inh of CC(=O)N1CCN(c2ccc(Nc3nccc(-c4sc(C(C)C)nc4-c4cccc(NS(=O)(=O)c5cccc(Cl)c5)c4)n3)cn2)CC1 ?
72

Quick check: %Inh of CSc1cccc2c(-c3ccncn3)c(-c3ccc(F)cc3)nn12 ?
22
